Source listed as ChEMBL document CHEMBL1201862.

Tested on: HOP-92
Test: NCI tumour cell line growth inhibition, 48 h
Active and inactive are the calls of the source. Rule as the data show it: active = GI50 up to about 1.1 µM and inactive = higher.
Exercise: state measured GI50 for each of the compounds provided.

These solved cases illustrate the format of a correct answer.
[[record]]
compound = "CC1(Cc2ccccc2)NC(=S)NC1=O (stereo unspecified)"
quantity_kind = "GI50"
result = "3.03 µM (inactive)"

[[record]]
compound = "COC(=O)c1cc(-c2ccc3ccccc3c2)nc(O)c1C#N"
quantity_kind = "GI50"
result = "> 100 µM (inactive)"

[[record]]
compound = "COc1ccc(-c2c3c(nc4nc(SC)nc(SC)c24)CCCC3)cc1OC"
quantity_kind = "GI50"
result = "40.2 µM (inactive)"

[[record]]
compound = "CCCCCCOC(=O)/C=C/[C@]1(CO)C/C(=C/CC(C(C)C)C(C)C)C(=O)O1"
quantity_kind = "GI50"
result = "12.1 µM (inactive)"

[[record]]
compound = "C/C(=N\\NC(=S)NC(CCC(=O)O)C(=O)O)c1ccccn1 (stereo unspecified)"
quantity_kind = "GI50"
result = "> 100 µM (inactive)"

[[record]]
compound = "C[C@H]1C2Cc3cc(O)ccc3[C@@]1(C)CCN2CCc1ccc(N)cc1"
quantity_kind = "GI50"
result = "1.71 µM (inactive)"

[[record]]
compound = "COC(=O)C1=CNC(C(=O)OC)=NN1"
quantity_kind = "GI50"
result = "> 100 µM (inactive)"

[[record]]
compound = "COCN1C(=O)[C@@H]2CCCN2C(=O)c2ccc(Cl)cc21"
quantity_kind = "GI50"
result = "> 100 µM (inactive)"

[[record]]
compound = "N#Cc1cc(C#N)c(Cl)nc1N"
quantity_kind = "GI50"
result = "> 10 µM (inactive)"

[[record]]
compound = "COc1cc(/C=C2\\NC(=O)C3Cc4c(OC)c(C)c(OC)c(OC)c4C2N3C)c(OC)c(C)c1OC (stereo unspecified)"
quantity_kind = "GI50"
result = "> 100 µM (inactive)"


Let us move to another entry and its GI50.
Query: If you can, please state the reported GI50 value of O=C(NCc1ccccc1)c1cc2cc(O)c(O)cc2cn1 .
Result: 39.1 µM (inactive)

----------
Tested on: HT-29
Test: NCI tumour cell line growth inhibition, 48 h
The source made the active and inactive calls. No stated cut-off is given here; in the data, active = GI50 up to about 1.1 µM and inactive = higher.
Exercise: state measured GI50 for each of the compounds provided.

[[record]]
compound = "CCC(=O)N(c1ccccc1)C(C)CN1CCC(O)(c2ccccc2)CC1 (centres undefined)"
result = "58.3 µM (inactive)"


Dear colleague, could you send me GI50 for each of the items below? Thanks.
1. CCOC(=O)C(NC(=O)c1ccccc1)(Nc1ccc(S(=O)(=O)Nc2ccc(OC)nn2)cc1)C(F)(F)F (centres undefined)
2. COC(=O)c1cc(-c2ccc3ccccc3c2)nc(O)c1C#N
3. O=[N+]([O-])/C(C(Cl)=C(Cl)Cl)=C(/Sc1ccccc1)N1CCOCC1
4. CC(=O)Oc1c(C)cc2c(c1C)C(C)(C)CN2C(=O)C(C)(C)C

Result:
["> 100 µM (inactive)", "> 100 µM (inactive)", "6.15 µM (inactive)", "33.1 µM (inactive)"]

Dear colleague, could you send me GI50 for each of the items below? Thanks.
1. O=C(Nc1nnc(-c2ccccc2)o1)C(SC(=S)N1CCOCC1)c1ccccc1 (centres undefined)
2. O=C(O)CNS(=O)(=O)c1ccc(NC(=O)c2ccccc2[N+](=O)[O-])cc1
3. COC(=O)CN1Cc2cc(C)cc(c2O)CN(CC(=O)OC)Cc2cc(C)cc(c2O)CN(CC(=O)OC)Cc2cc(C)cc(c2O)CN(CC(=O)OC)Cc2cc(C)cc(c2O)C1
4. COC1=CC(=O)C2=C(C[C@@]3(C)C(=C2)C(CO)=CC[C@H]3O)C1=O

Result:
["26.4 µM (inactive)", "> 100 µM (inactive)", "8.79 µM (inactive)", "46.1 µM (inactive)"]
